The following compounds are listed with their measured pKi values.
target: Maltase Glucoamylase (MGA) (Homo sapiens); assay: Inhibition of recombinant human maltase glucoamylase (MGA), maltose substrate, glucose oxidase readout; conditions: maltose substrate, 100 mM MES buffer pH 6.5, 37° C.; read-out: Ki value against recombinant human maltase glucoamylase (MGA)
Sequence (O43451 87-954 limits assumed): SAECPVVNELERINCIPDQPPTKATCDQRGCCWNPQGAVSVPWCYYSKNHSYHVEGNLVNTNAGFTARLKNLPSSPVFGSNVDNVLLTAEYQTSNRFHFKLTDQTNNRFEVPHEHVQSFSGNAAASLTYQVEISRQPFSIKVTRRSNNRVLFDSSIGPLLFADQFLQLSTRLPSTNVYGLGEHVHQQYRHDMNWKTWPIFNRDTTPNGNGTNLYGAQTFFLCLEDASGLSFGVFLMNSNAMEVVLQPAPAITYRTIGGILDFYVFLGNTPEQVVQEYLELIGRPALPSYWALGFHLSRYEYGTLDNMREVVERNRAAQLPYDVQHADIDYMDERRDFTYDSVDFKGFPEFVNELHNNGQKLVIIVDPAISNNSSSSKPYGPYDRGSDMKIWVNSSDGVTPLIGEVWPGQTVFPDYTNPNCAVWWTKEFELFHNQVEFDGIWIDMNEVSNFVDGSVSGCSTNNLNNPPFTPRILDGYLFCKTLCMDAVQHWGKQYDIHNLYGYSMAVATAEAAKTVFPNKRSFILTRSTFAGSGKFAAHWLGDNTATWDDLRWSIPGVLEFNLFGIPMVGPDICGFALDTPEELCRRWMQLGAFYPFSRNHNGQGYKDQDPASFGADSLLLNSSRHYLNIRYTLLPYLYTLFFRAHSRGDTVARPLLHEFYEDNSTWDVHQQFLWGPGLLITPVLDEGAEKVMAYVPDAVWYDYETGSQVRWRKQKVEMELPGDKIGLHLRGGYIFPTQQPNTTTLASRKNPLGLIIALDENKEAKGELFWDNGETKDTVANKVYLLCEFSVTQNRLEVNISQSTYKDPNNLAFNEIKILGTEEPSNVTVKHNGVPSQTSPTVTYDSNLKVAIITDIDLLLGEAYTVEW
pKi: −log10 of the molar value.
readout.kind: pKi

compound	readout.kind	result.number
O=S(=O)(O)OC(C(O)CN1CC(O)C(O)C1CO)C(O)C(O)CO (single isomer, unassigned) [Compound 196]	pKi	5.30
O=S(=O)([O-])O[C@@H]([C@H](O)CO)[C@H](O)C[S@+]1C[C@@H](O)[C@H](O)[C@H]1CO	pKi	6.77
O=S(=O)(O)OC(C(O)CN1CC(O)C(O)C1CO)C(O)C(O)CO (single isomer, unassigned) [Compound 193]	pKi	4.59
